B1: PPP2R2B (parent)
chain: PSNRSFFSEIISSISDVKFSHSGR

# Variants of: B1
# protocol summary: protein stability index of a GFP-peptide fusion (GPS, HEK-293T) (PSI 1-6); higher = more stable;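 also: lentivirally expressed fusions sorted by FACS into six bins by GFP to DsRed ratio, PSI derived from sequencing read proportions per bin multiplied by bin number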
# condition info: c terminus: a fixed tail appended
Binned protein stability index; ranges: lower (below 2), middle (2 to below 3), upper (3 or more)

PSNRSFFSEIISSIFDVKFSHSGR [S15F] = lower
PSNRSFFSEIISSISDPKFSHSGR [V17P] = middle
PSNRSFFSEIDSSISDVKFSHSGR [I11D] = upper
PSNRCFFSEIISSISDVKFSHSGR [S5C] = lower

Query :: Exam item: assign PSNRSFFSEIISAISDVKFSHSGR [S13A] to the correct category.
Result :: lower

Query :: Please report the category associated with KSNRSFFSEIISSISDVKFSHSGR [P1K] , nothing else.
Result :: middle

Query :: Band assignment needed for PSNRSFFSEIISSISDVKFSHSGS [R24S] please.
Result :: upper
